I'd be grateful if you could share measured abundance fitness for these entries.
B1: SAM and SH3 domain-containing protein 1, residues 630 to 700; numbered along this chain, O94885 (parent)
chain: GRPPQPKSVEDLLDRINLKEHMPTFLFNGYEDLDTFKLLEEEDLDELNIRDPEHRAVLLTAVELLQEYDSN

# Variants of: B1
# test.protocol: abundance fitness (aPCA) (normalised: wild type 0, dead -1); higher = more abundant; growth selection in yeast, the domain comes from the species named
# reported.conditions: Homo sapiens
Numbers only.

D45R :: -0.415
L64V :: -0.234
L39R :: -0.861
K37E :: -0.64
T24S :: -0.464
F25Q :: -0.778

Kindly give each listed record's abundance fitness.
1. E40S
2. D43Q
3. E10F
4. L59S
5. N17R
6. E41G
7. S8L
8. K19A

Reply |
1: 0.252; 2: -0.142; 3: -0.443; 4: -0.514; 5: -0.645; 6: -0.465; 7: -0.818; 8: -0.055

Kindly give each listed record's abundance fitness.
1. L44W
2. P23V
3. N28S
4. V62I
5. R15W
6. V62A
7. T35C

Reply |
1: -0.773; 2: -0.433; 3: -0.395; 4: -0.14; 5: -0.411; 6: -0.091; 7: -0.206

Kindly give each listed record's abundance fitness.
1. K7E
2. G29K
3. N28K
4. S8R

Reply |
1. -0.002
2. -0.925
3. -0.426
4. -0.836

Kindly give each listed record's abundance fitness.
1. V62Q
2. L26T
3. D32H
4. D43V
5. S8E
6. Y30W

Reply |
1: -0.769; 2: -0.225; 3: -0.187; 4: -0.456; 5: -1.17; 6: -0.012

Kindly give each listed record's abundance fitness.
1. M22K
2. D45P
3. E40R
4. E20S
5. F25E
6. L33T
7. T60V

Reply |
1. -0.252
2. -0.833
3. 0.337
4. -0.332
5. -0.623
6. -0.828
7. -0.735

Kindly give each listed record's abundance fitness.
1. Y68P
2. E67L
3. N48C
4. D34K
5. L59D

Reply |
0.015
-0.468
-0.273
-0.291
-0.577

Kindly give each listed record's abundance fitness.
1. D11F
2. D45C

Reply |
1. -0.925
2. -0.416

Ask | Which abundance fitness value belongs to H21S ?
Reply | -0.785

Origin of the recorded values: the Human Domainome abundance scans (Beltran et al. 2025)
